- system-name: Solute carrier organic anion transporter family member 1B3 (Homo sapiens, UniProt Q9NPD5)
- experimental-setup: chinese hamster, cho, 10 µM
property-name: residual activity (%)

INSERT INTO results (compound, reported_value) VALUES
  ('COc1cc([C@@H]2c3cc4c(cc3[C@@H](O[C@@H]3O[C@@H]5CO[C@@H](c6cccs6)O[C@H]5[C@H](O)[C@H]3O)[C@H]3COC(=O)[C@H]23)OCO4)cc(OC)c1O [TENIPOSIDE]', 32.58),
  ('CC(C)C[C@H]1C(=O)N2CCC[C@H]2[C@]2(O)O[C@](NC(=O)[C@@H]3C=C4c5cccc6[nH]c(Br)c(c56)C[C@H]4N(C)C3)(C(C)C)C(=O)N12.CS(=O)(=O)O [BROMOCRIPTINE MESYLATE]', 84.69),
  ('CCN(CC)CCOc1ccc(C(=C(Cl)c2ccccc2)c2ccccc2)cc1 [CLOMIPHENE]', 126.3),
  ('CN(C)CCOC(c1ccc(Cl)cc1)c1ccccn1.O=C(O)/C=C\C(=O)O (stereo not given) [CARBINOXAMINE MALEATE]', 96.23),
  ('COc1c2ccoc2cc2oc(C)cc(=O)c12 [VISNAGIN]', 98.15),
  ('CC[N+](CC)(CC)CCOc1cccc(OCC[N+](CC)(CC)CC)c1OCC[N+](CC)(CC)CC.[I-].[I-].[I-] [GALLAMINE TRIETHIODIDE]', 79.25),
  ('COc1ccc(-c2coc3cc(O)ccc3c2=O)c(OC)c1 [2''-METHOXYFORMONETIN]', 83.66),
  ('CC1(C)[C@H](O)C[C@H](O)[C@]2(C)[C@H]3CC[C@@]4(C)[C@H](c5ccoc5)OC(=O)[C@H]5O[C@]54[C@]3(C)C(=O)C[C@@H]12', 93.94),
  ('CCC(=O)c1c(O)cc(O)cc1O [FLOPROPIONE]', 107.4),
  ('CCCCCCCCCCCCCCCC[n+]1ccccc1.O.[Cl-]', 166.6),
  ('O=c1c(O)c(-c2ccc(O)c(O)c2)oc2cc(O)cc(O)c12 [QUERCETIN]', 122.6),
  ('COc1cc(OC)c2c(=O)c(-c3ccccc3)c(C)oc2c1OC [2-METHYL-5,7,8-TRIMETHOXYISOFLAVONE]', 98.52),
  ('CC12CCCC(O)(C1)C1CC(C)(C)C1CC2 (stereo not drawn) [beta-CARYOPHYLLENE ALCOHOL]', 113),
  ('CC1(C)[C@@H](OC(=O)CCC(=O)[O-])CC[C@]2(C)[C@H]3C(=O)C=C4[C@@H]5C[C@@](C)(C(=O)[O-])CC[C@]5(C)CC[C@@]4(C)[C@]3(C)CC[C@@H]12.[Na+].[Na+] [CARBENOXOLONE SODIUM]', 14.47),
  ('CC(C)c1c(O)ccc2c1CC[C@H]1C(C)(C)CCC[C@]21C [TOTAROL]', 131.3);

###

- system-name: Solute carrier organic anion transporter family member 1B1 (Homo sapiens, UniProt Q9Y6L6)
- Sequence (Q9Y6L6 whole entry): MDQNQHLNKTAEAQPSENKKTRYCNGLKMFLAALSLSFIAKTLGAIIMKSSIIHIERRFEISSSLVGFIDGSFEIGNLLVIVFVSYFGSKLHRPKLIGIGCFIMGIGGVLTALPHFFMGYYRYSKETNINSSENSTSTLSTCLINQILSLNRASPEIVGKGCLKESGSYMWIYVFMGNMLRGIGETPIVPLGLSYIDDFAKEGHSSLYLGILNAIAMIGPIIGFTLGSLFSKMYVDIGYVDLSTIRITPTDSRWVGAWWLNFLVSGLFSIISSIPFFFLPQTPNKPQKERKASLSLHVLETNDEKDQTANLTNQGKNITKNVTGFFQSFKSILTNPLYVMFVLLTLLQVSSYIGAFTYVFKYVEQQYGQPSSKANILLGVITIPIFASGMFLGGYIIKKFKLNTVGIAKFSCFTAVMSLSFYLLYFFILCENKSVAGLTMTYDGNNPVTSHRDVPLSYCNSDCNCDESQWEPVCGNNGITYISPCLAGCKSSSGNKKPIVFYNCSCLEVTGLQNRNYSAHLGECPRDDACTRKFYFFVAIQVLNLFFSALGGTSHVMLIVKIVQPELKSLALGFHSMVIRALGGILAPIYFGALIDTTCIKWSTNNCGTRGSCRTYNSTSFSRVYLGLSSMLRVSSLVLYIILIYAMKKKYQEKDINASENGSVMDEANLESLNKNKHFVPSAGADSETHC
- experimental-setup: chinese hamster, cho, 10 µM
Decision: residual activity beneath 90% gives T; residual activity meeting or exceeding 90% gives F.

INSERT INTO assay_data (molecule, class_label) VALUES
  ('CN(N=O)C(=O)N[C@@H](C=O)[C@@H](O)[C@H](O)[C@H](O)CO [STREPTOZOCIN]', 'F'),
  ('Clc1ccc2c(c1)C(N1CCNCC1)=Nc1ccccc1O2 [AMOXAPINE]', 'F'),
  ('CC(=O)Nc1ccccc1 [ACETANILIDE]', 'F'),
  ('Nc1nc(=O)c2[nH]c(=O)cnc2[nH]1 [XANTHOPTERIN]', 'F'),
  ('CC(Cc1cccc(C(F)(F)F)c1)NCCOC(=O)c1ccccc1.Cl (centres undefined) [BENFLUOREX HYDROCHLORIDE]', 'F'),
  ('COc1cccc2c1cc([N+](=O)[O-])c1c(C(=O)O)cc3c(c12)OCO3 [ARISTOLOCHIC ACID]', 'T');

###

Recorded residual activity by entry
- system-name: Solute carrier organic anion transporter family member 1B3 (Homo sapiens, UniProt Q9NPD5)
- experimental-setup: chinese hamster, cho, 10 µM
property-name: residual activity (%)

INSERT INTO results (molecule, property_name, reported_value) VALUES
  ('CC1(C)C(=O)C=C[C@]2(C)[C@H]3CC[C@@]4(C)[C@H](c5ccoc5)OC(=O)[C@H]5O[C@]54[C@]3(C)C=C[C@@H]12', 'residual activity', 75.29),
  ('COc1ccc(CN(CCN(C)C)c2ncccn2)cc1.Cl [THONZYLAMINE HYDROCHLORIDE]', 'residual activity', 91.98),
  ('O=C1N=C([O-])NC1(c1ccccc1)c1ccccc1.[Na+] [PHENYTOIN SODIUM]', 'residual activity', 97.47),
  ('CN(C)CC/C=C1/c2ccccc2Sc2ccc(Cl)cc21.Cl [CHLORPROTHIXENE HYDROCHLORIDE]', 'residual activity', 101.8),
  ('Cl.N/C(=N\C(=O)c1nc(Cl)c(N)nc1N)NCc1ccccc1 [BENZAMIL HYDROCHLORIDE]', 'residual activity', 105),
  ('C=C1CC/C=C(\C)CC[C@@H]2[C@@H]1CC2(C)C', 'residual activity', 88.67),
  ('COc1cc2c(cc1OC)C(=O)OC2', 'residual activity', 95.41),
  ('[O-][n+]1ccccc1[S][Zn][S]c1cccc[n+]1[O-]', 'residual activity', 94.54);

###

- system-name: Solute carrier organic anion transporter family member 1B3 (Homo sapiens, UniProt Q9NPD5)
- experimental-setup: chinese hamster, cho, 10 µM
Recorded residual activity by entry
property-name: residual activity (%)

INSERT INTO measurements (compound, reported_value) VALUES
  ('O=C(O[C@@H]1Cc2c(O)cc(O)cc2O[C@@H]1c1cc(O)c(=O)c2c(O)c(O)cc([C@H]3Oc4cc(O)cc(O)c4C[C@H]3O)c2c1)c1cc(O)c(O)c(O)c1 [THEAFLAVIN MONOGALLATES]', 103.8),
  ('CNc1ccccc1C(=O)O', 100.4),
  ('OC[C@H]1O[C@@](CO)(O[C@H]2O[C@H](CO)[C@@H](O)[C@H](O)[C@H]2O)[C@@H](O[C@H]2O[C@H](CO)[C@@H](O)[C@H](O)[C@H]2O)[C@@H]1O [MELEZITOSE]', 96.54),
  ('CC(C)CCCC1(C)C=Cc2c(O)c3c(c(CCC(C)C)c2O1)OC12C(CC4CC1C(C)(C)OC2(CCC(C)C(=O)O)C4O)C3=O (configuration not stated) [DECAHYDROGAMBOGIC ACID]', 18.17),
  ('C/C=C(/C(=C/C)c1ccc(O)cc1)c1ccc(O)cc1 [DIENESTROL]', 61.94),
  ('C=C(C)[C@H]1CN[C@H](C(=O)O)[C@H]1CC(=O)O [KAINIC ACID]', 103.1),
  ('c1ccc2c(c1)cc1ccc3cccc4ccc2c1c34', 70.45);

###

- system-name: UniProt Q9NPD5
- Sequence (Q9NPD5 whole entry): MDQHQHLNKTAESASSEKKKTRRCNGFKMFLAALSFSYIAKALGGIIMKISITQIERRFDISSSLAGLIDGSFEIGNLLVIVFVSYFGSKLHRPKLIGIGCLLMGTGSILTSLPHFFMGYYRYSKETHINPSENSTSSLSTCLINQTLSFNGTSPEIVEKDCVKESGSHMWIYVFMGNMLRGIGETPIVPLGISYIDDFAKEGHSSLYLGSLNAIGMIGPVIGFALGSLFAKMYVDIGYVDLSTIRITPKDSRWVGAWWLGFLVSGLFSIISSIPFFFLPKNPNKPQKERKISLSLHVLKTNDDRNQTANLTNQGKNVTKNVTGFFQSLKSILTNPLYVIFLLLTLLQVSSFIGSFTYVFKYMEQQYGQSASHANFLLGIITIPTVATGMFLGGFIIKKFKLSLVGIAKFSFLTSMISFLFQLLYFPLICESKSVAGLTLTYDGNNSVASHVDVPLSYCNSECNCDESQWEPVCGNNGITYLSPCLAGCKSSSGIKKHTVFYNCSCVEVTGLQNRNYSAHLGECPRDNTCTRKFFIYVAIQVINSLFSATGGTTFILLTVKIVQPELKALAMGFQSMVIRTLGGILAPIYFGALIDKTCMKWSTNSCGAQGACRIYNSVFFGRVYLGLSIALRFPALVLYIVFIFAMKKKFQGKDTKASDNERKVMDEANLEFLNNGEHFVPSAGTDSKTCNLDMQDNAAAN
- experimental-setup: chinese hamster, cho, 10 µM
Recorded residual activity by entry
property-name: residual activity (%)

INSERT INTO assay_data (compound, quantity_unit, reported_value) VALUES
  ('CC(=O)Oc1ccc2c(c1)CC[C@@H]1[C@@H]2CC[C@]2(C)[C@@H](O)CC[C@@H]12 [ESTRADIOL ACETATE]', '%', 101),
  ('NC(=O)NCCC[C@H](N)C(=O)O', '%', 119.7),
  ('O=C(CC(=O)c1ccccc1)c1ccccc1', '%', 118.4),
  ('Cc1nnc(NS(=O)(=O)c2ccc(N)cc2)s1', '%', 100.6),
  ('Cl.O=C1NCC2(CCN(CCc3ccccc3)CC2)O1 [FENSPIRIDE HYDROCHLORIDE]', '%', 93.02);
